- experimental-target: T1, 4H3697-AA
- T1 chain: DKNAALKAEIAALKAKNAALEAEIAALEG
- test-summary: two-hybrid library CCmax;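 also: natural log of median RNA to DNA barcode read ratio; higher means stronger binding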
- run-conditions: mean of both orientations
Classification field: enter Met for interaction score values not below -1, Not met for values below it.

Reference set (2 entries):
- binder: "DENAALKAEIAALKAENAALKAKIAALEG [4H1629-AA]"
  class-label: "Met"
- binder: "DKIAALEAKNAALEAEIAALEAKIAALKG [4H2438-AA]"
  class-label: "Not met"

In plain terms: is recorded interaction score at least -1 for DENAALKAEIAALEAKNAALKAEIAALKG [4H1594-AA] ?
Met

In plain terms: is recorded interaction score at least -1 for DKIAALKAEIAALEAKNAALEAENAALEG [4H2611-AA] ?
Not met

In plain terms: is recorded interaction score at least -1 for DKIAALEAENAALKAKIAALEAEIAALKG [4H2274-AA] ?
Not met

In plain terms: is recorded interaction score at least -1 for DKNAALEAKIAALKAEIAALEAENAALEG [4H3395-AA] ?
Not met

In plain terms: is recorded interaction score at least -1 for DENAALKAKIAALKAENAALEAEIAALKG [4H1874-AA] ?
Met
